target.under.test: G protein-coupled receptor kinase 6 (Homo sapiens)
measurement.description: Inhibition of recombinant full-length human GRK6 using casein as substrate measured after 80 mins in presence of [gamma33P]ATP by radiometric scintillation counting method
For each record, write down the corresponding IC50.

[Q] In one line, give reported IC50 of the entry CCc1cc(Nc2nc(NCCc3ccccc3)nc3cccc(F)c23)n[nH]1 .
[A] 20 nM

[Q] In one line, give reported IC50 of the entry CCOc1ccc(Nc2nc(N[C@@H](C)c3ccc(F)cn3)nc3cccc(F)c23)cn1 .
[A] > 10000 nM

[Q] In one line, give reported IC50 of the entry CCc1cc(Nc2nc(N[C@@H](C)c3ccc(C#N)cn3)nc3cccc(F)c23)n[nH]1 .
[A] 91 nM

[Q] In one line, give reported IC50 of the entry CCc1cc(Nc2nc(N[C@@H](C)c3ccc(F)cn3)nc3cccc(F)c23)n[nH]1 .
[A] 29 nM

[Q] In one line, give reported IC50 of the entry CCc1cc(Nc2nc(NCCc3ccc(F)cc3)nc3ccccc23)n[nH]1 .
[A] 190 nM

[Q] In one line, give reported IC50 of the entry CCc1cc(Nc2nc(NCCc3ccc(F)cc3)nc3cc(Cl)ccc23)n[nH]1 .
[A] 1100 nM

[Q] In one line, give reported IC50 of the entry CCc1cc(Nc2nc(NCCc3ccc(F)cc3)nc3cccc(F)c23)n[nH]1 .
[A] 110 nM

[Q] In one line, give reported IC50 of the entry CCc1cc(Nc2nc(NCCN3CCOCC3)nc3cccc(F)c23)n[nH]1 .
[A] 1400 nM

[Q] In one line, give reported IC50 of the entry CCc1cc(Nc2nc(N[C@@H](C)c3ncc(F)cn3)nc3cccc(F)c23)n[nH]1 .
[A] 230 nM

[Q] In one line, give reported IC50 of the entry CCc1cc(Nc2nc(NCCc3ccc(F)cc3)nc3ccc(F)cc23)n[nH]1 .
[A] 310 nM

###

For each record, write down the corresponding IC50.
target.under.test: G protein-coupled receptor kinase 6 (Homo sapiens, UniProt P43250)
Sequence (P43250 whole entry): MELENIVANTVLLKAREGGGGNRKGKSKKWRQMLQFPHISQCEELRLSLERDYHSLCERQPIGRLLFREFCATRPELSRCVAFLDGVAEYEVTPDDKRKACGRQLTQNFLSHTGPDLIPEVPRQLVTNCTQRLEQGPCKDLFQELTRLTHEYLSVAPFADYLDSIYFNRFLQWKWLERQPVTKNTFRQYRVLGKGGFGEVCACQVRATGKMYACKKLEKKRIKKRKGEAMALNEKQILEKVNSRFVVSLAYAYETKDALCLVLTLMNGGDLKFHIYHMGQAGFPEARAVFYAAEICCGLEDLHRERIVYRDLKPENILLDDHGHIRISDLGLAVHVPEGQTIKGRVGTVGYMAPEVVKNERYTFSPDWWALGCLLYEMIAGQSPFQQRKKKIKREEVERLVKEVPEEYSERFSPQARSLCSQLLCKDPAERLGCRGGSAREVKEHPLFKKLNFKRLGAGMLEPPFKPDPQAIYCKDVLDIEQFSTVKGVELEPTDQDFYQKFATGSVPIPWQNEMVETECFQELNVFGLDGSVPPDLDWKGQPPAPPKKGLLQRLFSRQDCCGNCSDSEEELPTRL
measurement.description: Binding affinity to FLAG-tagged GRK6 in human KMS11 cells incubated for […] by ITDR assay
Format: cell-based, KMS-11
Respond with the bare value in µM.

[Q] In one line, give reported IC50 of the entry CCc1cc(Nc2nc(NCc3ccc(Cl)cc3OC)nc3cccc(C)c23)n[nH]1 .
[A] 0.17

[Q] In one line, give reported IC50 of the entry CCc1cc(Nc2nc(NCc3ccc(F)cn3)nc3cccc(OC)c23)n[nH]1 .
[A] 10

[Q] In one line, give reported IC50 of the entry CCc1cc(Nc2nc(NCc3ccc(Cl)cc3OC)nc3cccc(OC)c23)n[nH]1 .
[A] 0.03

[Q] In one line, give reported IC50 of the entry CCc1cc(Nc2nc(NCc3ccc(Cl)cc3)nc3cccc(OC)c23)n[nH]1 .
[A] 2

[Q] In one line, give reported IC50 of the entry CCc1cc(Nc2nc(N[C@@H](C)c3ccc(F)cn3)nc3cccc(C)c23)n[nH]1 .
[A] 0.61

[Q] In one line, give reported IC50 of the entry CCc1cc(Nc2nc(N[C@@H](C)c3ccc(F)cn3)nc3cccc(OC)c23)n[nH]1 .
[A] 2

###

target.under.test: UniProtKB O43293
Sequence (O43293 whole entry, the tested form may be a part): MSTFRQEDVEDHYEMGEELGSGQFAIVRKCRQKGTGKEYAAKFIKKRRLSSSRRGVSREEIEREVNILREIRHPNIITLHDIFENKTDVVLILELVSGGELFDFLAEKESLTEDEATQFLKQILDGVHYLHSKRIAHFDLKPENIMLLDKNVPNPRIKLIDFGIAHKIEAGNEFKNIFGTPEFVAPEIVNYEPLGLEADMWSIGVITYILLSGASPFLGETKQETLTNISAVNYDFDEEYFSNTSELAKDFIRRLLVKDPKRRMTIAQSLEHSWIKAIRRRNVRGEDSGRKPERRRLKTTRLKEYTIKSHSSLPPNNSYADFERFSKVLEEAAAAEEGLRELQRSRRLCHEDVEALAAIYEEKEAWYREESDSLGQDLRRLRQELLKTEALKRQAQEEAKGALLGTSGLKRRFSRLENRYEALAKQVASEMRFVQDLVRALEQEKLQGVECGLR
measurement.description: Inhibition of recombinant human ZIPK (1 to 290 residues) using KKLNRTLSFAEPG substrate incubated for 40 mins in presence of [gamma33P]ATP by scintillation counting based radiometry assay
readout: IC50 (nM)
Respond with the bare value in nM.

[Q] In one line, give reported IC50 of the entry CCc1cc(Nc2nc(NCc3ccc(Cl)cc3OC)nc3cccc(OC)c23)n[nH]1 .
[A] 720

###

target.under.test: Tyrosine-protein kinase JAK2 (Homo sapiens)
Sequence (O60674 whole entry): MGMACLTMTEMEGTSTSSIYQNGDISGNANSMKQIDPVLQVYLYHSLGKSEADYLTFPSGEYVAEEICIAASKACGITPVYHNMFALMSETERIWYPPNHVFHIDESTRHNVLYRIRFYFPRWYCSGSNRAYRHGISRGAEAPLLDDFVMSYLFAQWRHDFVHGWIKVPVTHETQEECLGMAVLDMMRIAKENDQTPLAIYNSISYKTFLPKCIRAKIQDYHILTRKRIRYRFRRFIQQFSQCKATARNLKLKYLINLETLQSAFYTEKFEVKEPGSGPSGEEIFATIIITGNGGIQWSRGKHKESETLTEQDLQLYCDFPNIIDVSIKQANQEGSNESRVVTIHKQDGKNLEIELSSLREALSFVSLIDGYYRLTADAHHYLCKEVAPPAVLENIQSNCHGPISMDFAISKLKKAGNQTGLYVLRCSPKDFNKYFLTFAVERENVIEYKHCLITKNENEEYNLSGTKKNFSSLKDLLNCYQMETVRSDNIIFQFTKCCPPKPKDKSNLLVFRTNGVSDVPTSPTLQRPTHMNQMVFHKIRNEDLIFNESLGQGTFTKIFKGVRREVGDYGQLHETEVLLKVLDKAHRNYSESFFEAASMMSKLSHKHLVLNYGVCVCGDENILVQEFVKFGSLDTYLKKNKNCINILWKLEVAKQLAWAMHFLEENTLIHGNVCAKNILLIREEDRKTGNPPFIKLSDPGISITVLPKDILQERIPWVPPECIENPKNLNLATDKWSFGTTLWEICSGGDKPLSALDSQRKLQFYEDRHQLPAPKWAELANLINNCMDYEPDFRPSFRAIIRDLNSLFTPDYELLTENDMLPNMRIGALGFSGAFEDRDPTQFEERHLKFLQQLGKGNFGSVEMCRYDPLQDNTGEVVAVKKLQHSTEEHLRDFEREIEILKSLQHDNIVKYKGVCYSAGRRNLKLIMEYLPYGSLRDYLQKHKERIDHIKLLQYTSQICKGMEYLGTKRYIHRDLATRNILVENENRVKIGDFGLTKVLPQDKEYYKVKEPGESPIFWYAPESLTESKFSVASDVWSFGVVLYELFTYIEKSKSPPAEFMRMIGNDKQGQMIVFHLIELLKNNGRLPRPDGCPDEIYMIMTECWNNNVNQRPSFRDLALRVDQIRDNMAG
measurement.description: Inhibition of recombinant human JAK2 (808 to end residues) using KTFCGTPEYLAPE as substrate incubated for 40 mins in presence of [gamma33P]ATP by radiometric scintillation counting analysis
pIC50: −log10 of the molar value.
readout: pIC50

[Q] In one line, give reported pIC50 of the entry CCc1cc(Nc2nc(NCc3ccc(Cl)cc3OC)nc3cccc(OC)c23)n[nH]1 .
[A] < 5.00

###

target.under.test: G protein-coupled receptor kinase 6 (Homo sapiens)
measurement.description: Inhibition of recombinant full-length human GRK6 using casein as substrate measured after 80 mins in presence of [gamma33P]ATP by radiometric scintillation counting method
For each record, write down the corresponding pIC50.
// pIC50 is dimensionless: -log10 of concentration (M)

[Q] In one line, give reported pIC50 of the entry CCc1cc(Nc2nc(NCc3ccc(Cl)cc3OC)nc3ccccc23)n[nH]1 .
[A] 7.40

[Q] In one line, give reported pIC50 of the entry Fc1cccc2nc(NCCc3ccccc3)nc(Nc3cc[nH]n3)c12 .
[A] 5.60

[Q] In one line, give reported pIC50 of the entry CCc1cc(Nc2nc(NCCc3ccccc3)nc3cccc(OC)c23)n[nH]1 .
[A] 8.00

[Q] In one line, give reported pIC50 of the entry CCc1cc(Nc2nc(NCc3ccc(Cl)cc3)nc3cccc(OC)c23)n[nH]1 .
[A] 7.80

[Q] In one line, give reported pIC50 of the entry CCc1cc(Nc2nc(N[C@@H](C)c3ccc(C)cc3)nc3cccc(F)c23)n[nH]1 .
[A] 7.57

[Q] In one line, give reported pIC50 of the entry CCc1cc(Nc2nc(N[C@@H](C)c3cccc(F)c3)nc3ccccc23)n[nH]1 .
[A] 6.47

[Q] In one line, give reported pIC50 of the entry CCc1cc(Nc2nc(N[C@@H](C)c3ccc(F)cc3)nc3ccc(OC)cc23)n[nH]1 .
[A] 6.85

[Q] In one line, give reported pIC50 of the entry CCc1cc(Nc2nc(N[C@@H](C)c3ccc(F)cc3)nc3ccc(F)cc23)n[nH]1 .
[A] 6.80

[Q] In one line, give reported pIC50 of the entry CCc1cc(Nc2nc(N[C@H](C)c3ccc(F)cc3)nc3ccccc23)n[nH]1 .
[A] 5.85

###

target.under.test: Serine/threonine-protein kinase Chk2 (Homo sapiens)
Sequence (O96017 whole entry): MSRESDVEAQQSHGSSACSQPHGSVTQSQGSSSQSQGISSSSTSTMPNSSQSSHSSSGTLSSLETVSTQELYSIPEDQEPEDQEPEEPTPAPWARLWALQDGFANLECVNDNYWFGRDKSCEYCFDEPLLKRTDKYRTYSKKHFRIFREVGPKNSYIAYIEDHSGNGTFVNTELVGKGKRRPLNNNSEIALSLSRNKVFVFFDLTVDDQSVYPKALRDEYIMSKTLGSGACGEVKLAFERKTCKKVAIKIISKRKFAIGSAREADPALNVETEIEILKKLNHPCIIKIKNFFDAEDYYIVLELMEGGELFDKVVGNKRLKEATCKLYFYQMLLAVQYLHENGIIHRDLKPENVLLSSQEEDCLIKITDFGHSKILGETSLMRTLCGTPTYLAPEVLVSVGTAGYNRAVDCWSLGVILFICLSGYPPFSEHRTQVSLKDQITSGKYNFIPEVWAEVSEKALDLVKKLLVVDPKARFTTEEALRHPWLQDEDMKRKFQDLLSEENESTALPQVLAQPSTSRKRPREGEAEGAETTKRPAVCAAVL
measurement.description: Inhibition of recombinant human CHK2 (5 to end residues) using KKKVSRSGLYRSPSMPENLNRPR as substrate incubated for 40 mins in presence of [gamma-33ATP] by scintillation counting based radiometry assay
readout: pIC50
// pIC50 is dimensionless: -log10 of concentration (M)

[Q] In one line, give reported pIC50 of the entry CCc1cc(Nc2nc(NCc3ccc(Cl)cc3OC)nc3cccc(OC)c23)n[nH]1 .
[A] 6.09

###

For each record, write down the corresponding pIC50.
target.under.test: Aurora kinase A (Homo sapiens, UniProt O14965)
Sequence (O14965 whole entry): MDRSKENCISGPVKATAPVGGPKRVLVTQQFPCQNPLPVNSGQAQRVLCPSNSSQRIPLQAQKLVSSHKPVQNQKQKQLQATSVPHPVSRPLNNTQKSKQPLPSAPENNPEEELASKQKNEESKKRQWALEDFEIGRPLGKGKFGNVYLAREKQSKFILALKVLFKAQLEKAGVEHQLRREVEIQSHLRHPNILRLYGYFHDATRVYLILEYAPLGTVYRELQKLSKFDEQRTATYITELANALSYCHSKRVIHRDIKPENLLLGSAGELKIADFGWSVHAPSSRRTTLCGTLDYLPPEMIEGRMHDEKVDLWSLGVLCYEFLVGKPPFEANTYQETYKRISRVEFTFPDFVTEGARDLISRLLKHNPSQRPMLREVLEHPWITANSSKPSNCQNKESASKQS
measurement.description: Inhibition of recombinant full length human Aurora A using LRRASLG as substrate incubated for 40 mins in presence of [gamma-33ATP] by radiometric scintillation counting method
// pIC50 is dimensionless: -log10 of concentration (M)

[Q] In one line, give reported pIC50 of the entry CCc1cc(Nc2nc(NCc3ccc(Cl)cc3)nc3cccc(C)c23)n[nH]1 .
[A] 5.92

[Q] In one line, give reported pIC50 of the entry CCc1cc(Nc2nc(N[C@@H](C)c3ccc(F)cc3)nc3ccccc23)n[nH]1 .
[A] 7.96

[Q] In one line, give reported pIC50 of the entry CCc1cc(Nc2nc(N[C@@H](C)c3ccc(F)cn3)nc3cccc(F)c23)n[nH]1 .
[A] 7.60

[Q] In one line, give reported pIC50 of the entry CCc1cc(Nc2nc(NCCc3ccc(F)cc3)nc3ccccc23)n[nH]1 .
[A] 7.39

[Q] In one line, give reported pIC50 of the entry CCc1cc(Nc2nc(N[C@@H](C)c3ccc(F)cn3)nc3cccc(OC)c23)n[nH]1 .
[A] 6.07

[Q] In one line, give reported pIC50 of the entry CCc1cc(Nc2nc(NCc3ccc(Cl)cc3OC)nc3cccc(C)c23)n[nH]1 .
[A] 5.92

[Q] In one line, give reported pIC50 of the entry CCc1cc(Nc2nc(N[C@@H](C)c3ccc(Cl)cn3)nc3cccc(OC)c23)n[nH]1 .
[A] 4.66

[Q] In one line, give reported pIC50 of the entry CCc1cc(Nc2nc(N[C@@H](C)c3ccc(C)cc3)nc3cccc(F)c23)n[nH]1 .
[A] 7.12

[Q] In one line, give reported pIC50 of the entry CCc1cc(Nc2nc(NCc3ccc(F)cn3)nc3cccc(OC)c23)n[nH]1 .
[A] 5.34

[Q] In one line, give reported pIC50 of the entry CCc1cc(Nc2nc(N[C@@H](C)c3ccc(C#N)cn3)nc3cccc(F)c23)n[nH]1 .
[A] 6.66

[Q] In one line, give reported pIC50 of the entry CCc1cc(Nc2nc(NCc3ccc(Cl)cc3OC)nc3cccc(OC)c23)n[nH]1 .
[A] 5.05

[Q] In one line, give reported pIC50 of the entry CCc1cc(Nc2nc(NCCc3ccc(F)cc3)nc3cccc(F)c23)n[nH]1 .
[A] 6.74

[Q] In one line, give reported pIC50 of the entry CCc1cc(Nc2nc(N[C@@H](C)c3ncc(F)cn3)nc3cccc(F)c23)n[nH]1 .
[A] 7.10

[Q] In one line, give reported pIC50 of the entry CCc1cc(Nc2nc(N[C@@H](C)c3ccc(F)cc3)nc3cccc(F)c23)n[nH]1 .
[A] 7.29

[Q] In one line, give reported pIC50 of the entry CCc1cc(Nc2nc(N[C@@H](C)c3ccc(F)cn3)nc3cccc(C)c23)n[nH]1 .
[A] 6.48
